# System: NCI-H2795 (Mesothelioma)
# experiment_summary: Bliss excess, mean over the matrix (fraction); higher = more synergy
Rule: Bliss excess of -0.02 or more gives Criterion met; anything lower gives Criterion not met.

Q: Evaluate CC1(C)CCC(CN2CCN(c3ccc(C(=O)NS(=O)(=O)c4ccc(NCC5CCOCC5)c([N+](=O)[O-])c4)c(Oc4cnc5[nH]ccc5c4)c3)CC2)=C(c2ccc(Cl)cc2)C1 [Venetoclax] + CN(C)CCCOc1ccc(-c2ccc3ncc4c(c3c2)n(C2CCOCC2)c(=O)n4C)cn1 [AZD0156] (first compound max 1 µM, 7x7, partner max 1 µM) : Bliss excess at minimum -0.02?
Result: Criterion met

Q: Evaluate CN(CCO)CC[C@H](CSc1ccccc1)Nc1ccc(S(=O)(=O)NC(=O)c2ccc(N3CCC([C@@H](O)c4ccccc4-c4ccc(Cl)cc4)CC3)cc2)cc1S(=O)(=O)C(F)(F)F [AZD4320] + CC(=O)O[C@H]1C(=O)[C@@]2(C)[C@H]([C@H](OC(=O)c3ccccc3)[C@]3(O)C[C@H](OC(=O)[C@H](O)[C@@H](NC(=O)c4ccccc4)c4ccccc4)C(C)=C1C3(C)C)[C@]1(OC(C)=O)CO[C@@H]1C[C@@H]2O [Paclitaxel] (first compound max 1 µM, 7x7, partner max 3 µM) : Bliss excess at minimum -0.02?
Result: Criterion met

Q: Evaluate N#Cc1cnc(Nc2cc(NC[C@H]3CNCCO3)c(C(F)(F)F)cn2)cn1 [SRA737] + CCc1c2c(nc3ccc(O)cc13)-c1cc3c(c(=O)n1C2)COC(=O)[C@]3(O)CC [SN-38] (first compound max 10 µM, 7x7, partner max 0.3 µM) : Bliss excess at minimum -0.02?
Result: Criterion not met

Q: Evaluate Cc1c2c(nn1C)CSCc1cc(n(C)n1)CSc1cc(c3ccccc3c1)OCCCc1c(C(=O)O)n(C)c3c-2c(Cl)ccc13 [AZD5991] + Nc1ccn([C@@H]2O[C@H](CO)[C@@H](O)C2(F)F)c(=O)n1 [Gemcitabine] (first compound max 1 µM, 7x7, partner max 0.3 µM) : Bliss excess at minimum -0.02?
Result: Criterion not met

Q: Evaluate C[C@@H](Oc1cc(-c2cnn(C3CCNCC3)c2)cnc1N)c1c(Cl)ccc(F)c1Cl [Crizotinib] + CC1=C(C(=CC=C1)Cl)NC(=O)C2=CN=C(S2)NC3=CC(=NC(=N3)C)N4CCN(CC4)CCO [Dasatinib] (first compound max 10 µM, 7x7, partner max 2 µM) : Bliss excess at minimum -0.02?
Result: Criterion met

Q: Evaluate COc1nnc2ccc(N3CCC(c4ccc(OCCN5CCN(C)C(=O)[C@H]5C)cc4)CC3)nn12 [AZD5153] + C[C@@H]1COCCN1C2=NC(=NC(=C2)C3(CC3)[S@](=N)(=O)C)C4=C5C=CNC5=NC=C4 [AZD6738] (first compound max 1 µM, 7x7, partner max 10 µM) : Bliss excess at minimum -0.02?
Result: Criterion met

Q: Evaluate Cc1cc2ncnn2cc1Nc1ncc2c(n1)n(C1CCOCC1)c(=O)n2C [AZD7648] + O=C(c1cc(Cc2n[nH]c(=O)c3ccccc23)ccc1F)N1CCN(C(=O)C2CC2)CC1 [Olaparib] (first compound max 10 µM, 7x7, partner max 10 µM) : Bliss excess at minimum -0.02?
Result: Criterion met

Q: Evaluate NC1(C(=O)N[C@@H](CCO)c2ccc(Cl)cc2)CCN(c2ncnc3[nH]ccc23)CC1 [Capivasertib] + CC(C)n1c(=O)n(C)c2cnc3cc(F)c(-c4ccc(OCCCN5CCCCC5)nc4)cc3c21 [AZD1390] (first compound max 10 µM, 7x7, partner max 0.3 µM) : Bliss excess at minimum -0.02?
Result: Criterion not met

Q: Evaluate NC1(C(=O)N[C@@H](CCO)c2ccc(Cl)cc2)CCN(c2ncnc3[nH]ccc23)CC1 [Capivasertib] + CC(=O)c1c(C)c2cnc(Nc3ccc(N4CCNCC4)cn3)nc2n(C2CCCC2)c1=O [Palbociclib] (first compound max 10 µM, 7x7, partner max 10 µM) : Bliss excess at minimum -0.02?
Result: Criterion met

Q: Evaluate CN(CCO)CC[C@H](CSc1ccccc1)Nc1ccc(S(=O)(=O)NC(=O)c2ccc(N3CCC([C@@H](O)c4ccccc4-c4ccc(Cl)cc4)CC3)cc2)cc1S(=O)(=O)C(F)(F)F [AZD4320] + C=CCn1c(=O)c2cnc(Nc3ccc(N4CCN(C)CC4)cc3)nc2n1-c1cccc(C(C)(C)O)n1 [AZD1775] (first compound max 1 µM, partner max 1 µM) : Bliss excess at minimum -0.02?
Result: Criterion not met

Q: Evaluate N#Cc1cnc(Nc2cc(NC[C@H]3CNCCO3)c(C(F)(F)F)cn2)cn1 [SRA737] + Nc1ccn([C@@H]2O[C@H](CO)[C@@H](O)C2(F)F)c(=O)n1 [Gemcitabine] (first compound max 10 µM, 7x7, partner max 0.3 µM) : Bliss excess at minimum -0.02?
Result: Criterion not met

Q: Evaluate Cn1cnc2c(F)c(Nc3ccc(Br)cc3Cl)c(C(=O)NOCCO)cc21 [Selumetinib] + CC(C)n1c(=O)n(C)c2cnc3cc(F)c(-c4ccc(OCCCN5CCCCC5)nc4)cc3c21 [AZD1390] (first compound max 10 µM, 7x7, partner max 0.3 µM) : Bliss excess at minimum -0.02?
Result: Criterion not met

* * *

# Tested on: CAL-54 (Kidney Carcinoma)
# experiment_summary: Bliss excess, mean over the matrix (fraction); higher = more synergy
Rule: Bliss excess of -0.02 or more gives yes (1); anything lower gives no (0).

Q: Evaluate Cc1cc2ncnn2cc1Nc1ncc2c(n1)n(C1CCOCC1)c(=O)n2C [AZD7648] + C[C@@H]1COCCN1C2=NC(=NC(=C2)C3(CC3)[S@](=N)(=O)C)C4=C5C=CNC5=NC=C4 [AZD6738] (first compound max 10 µM, 7x7, partner max 10 µM) : Bliss excess at minimum -0.02?
Result: yes (1)

Q: Evaluate CCN(CCO)CCCOc1ccc2c(Nc3cc(CC(=O)Nc4cccc(F)c4)[nH]n3)ncnc2c1 [AZD2811] + C=CCn1c(=O)c2cnc(Nc3ccc(N4CCN(C)CC4)cc3)nc2n1-c1cccc(C(C)(C)O)n1 [AZD1775] (first compound max 1 µM, partner max 1 µM) : Bliss excess at minimum -0.02?
Result: no (0)

Q: Evaluate NC1(C(=O)N[C@@H](CCO)c2ccc(Cl)cc2)CCN(c2ncnc3[nH]ccc23)CC1 [Capivasertib] + Cn1cnc2c(F)c(Nc3ccc(Br)cc3Cl)c(C(=O)NOCCO)cc21 [Selumetinib] (first compound max 10 µM, 7x7, partner max 10 µM) : Bliss excess at minimum -0.02?
Result: yes (1)

Q: Evaluate Cc1cc2ncnn2cc1Nc1ncc2c(n1)n(C1CCOCC1)c(=O)n2C [AZD7648] + COc1cc([C@@H]2c3cc4c(cc3[C@@H](O[C@@H]3O[C@@H]5CO[C@@H](C)O[C@H]5[C@H](O)[C@H]3O)[C@H]3COC(=O)[C@H]23)OCO4)cc(OC)c1O [Etoposide] (first compound max 10 µM, 7x7, partner max 10 µM) : Bliss excess at minimum -0.02?
Result: yes (1)

Q: Evaluate CC1(C)CCC(CN2CCN(c3ccc(C(=O)NS(=O)(=O)c4ccc(NCC5CCOCC5)c([N+](=O)[O-])c4)c(Oc4cnc5[nH]ccc5c4)c3)CC2)=C(c2ccc(Cl)cc2)C1 [Venetoclax] + C1CN(CCC1(C(=O)N[C@@H](CCO)C2=CC=C(C=C2)Cl)N)C3=NC=NC4=C3C=CN4 [Capivasertib] (first compound max 1 µM, 7x7, partner max 3 µM) : Bliss excess at minimum -0.02?
Result: no (0)

* * *

# System: NCI-H747 (Colorectal Carcinoma)
# experiment_summary: combination Emax (second highest fraction inhibited in the dose matrix, 72 h); higher = more inhibition; extreme values may be limits of the assay
Kindly state combination Emax for each of the entries shown.
Answer with a bare number; do not write a unit.

Q: If you can, please state the reported combination Emax value of CS(=O)(=O)CCNCc1ccc(-c2ccc3ncnc(Nc4ccc(OCc5cccc(F)c5)c(Cl)c4)c3c2)o1 [Lapatinib] + NC1(c2ccc(-c3nc4ccn5c(=O)[nH]nc5c4cc3-c3ccccc3)cc2)CCC1 [MK-2206] (first compound max 10 µM, 7x7, partner max 10 µM) .
Result: 0.898

Q: If you can, please state the reported combination Emax value of COc1cccc(OCCCN)c1-c1cc(Nc2cnc(C#N)cn2)n[nH]1 [Prexasertib] + C[C@@H]1COCCN1C2=NC(=NC(=C2)C3(CC3)[S@](=N)(=O)C)C4=C5C=CNC5=NC=C4 [AZD6738] (first compound max 1 µM, 7x7, partner max 10 µM) .
Result: 0.443

* * *

# System: LU-139 (Small Cell Lung Carcinoma)
# experiment_summary: combination Emax (second highest fraction inhibited in the dose matrix, 72 h); higher = more inhibition; extreme values may be limits of the assay
Kindly state combination Emax for each of the entries shown.
Answer with a bare number; do not write a unit.

Q: If you can, please state the reported combination Emax value of Cn1cnc2c(F)c(Nc3ccc(Br)cc3Cl)c(C(=O)NOCCO)cc21 [Selumetinib] + CCN(CCO)CCCOc1ccc2c(Nc3cc(CC(=O)Nc4cccc(F)c4)[nH]n3)ncnc2c1 [AZD2811] (first compound max 10 µM, 7x7, partner max 1 µM) .
Result: 0.247

Q: If you can, please state the reported combination Emax value of Cc1nc(-c2cn3c(n2)-c2ccc(-c4cnn(C(C)(C)C(N)=O)c4)cc2OCC3)n(C(C)C)n1 [Taselisib] + O=C(Nc1ccc2[nH]nc(-c3ccncc3)c2c1)[C@@H]1CCN(CC(=O)N2CCN(c3ccc(-c4ncccn4)cc3)CC2)C1 [SCH772984] (first compound max 10 µM, 7x7, partner max 5 µM) .
Result: 0.154

Q: If you can, please state the reported combination Emax value of NC1(C(=O)N[C@@H](CCO)c2ccc(Cl)cc2)CCN(c2ncnc3[nH]ccc23)CC1 [Capivasertib] + COc1nnc2ccc(N3CCC(c4ccc(OCCN5CCN(C)C(=O)[C@H]5C)cc4)CC3)nn12 [AZD5153] (first compound max 10 µM, 7x7, partner max 1 µM) .
Result: 0.864

Q: If you can, please state the reported combination Emax value of CCc1c2c(nc3ccc(O)cc13)-c1cc3c(c(=O)n1C2)COC(=O)[C@]3(O)CC [SN-38] + CN(C)CCCOc1ccc(-c2ccc3ncc4c(c3c2)n(C2CCOCC2)c(=O)n4C)cn1 [AZD0156] (first compound max 0.3 µM, 7x7, partner max 1 µM) .
Result: 0.627
